experiment summary: Pharmacokinetics test
Type: in vivo
conditions: rat, plasma; male SD rats, overnight fasting
experimental endpoint: half-life (h)
Write the answer as a number in h, unit excluded.

Need half-life, item C[C@@H]1NC(c2cccc(=O)[nH]2)=N[C@]1(c1ccc(F)cc1)c1ccnc(F)c1 [Example 1]
2.5

* * *

experiment summary: Brain/cerebrospinal fluid transport test
Type: in vivo, male SD rats
conditions: male, SD, plasma; rat, one hour after oral administration (10 mg/kg); read-out: concentration in the plasma
experimental endpoint: concentration at 1 h (nM)
Write the answer as a number in nM, unit excluded.

Need concentration at 1 h, item C[C@@H]1NC(c2cccc(=O)[nH]2)=N[C@]1(c1ccc(F)cc1)c1ccnc(F)c1 [Example 1]
2790
